# subject.of.test: HDAC-3 (Homo sapiens, UniProt O15379)
# Sequence (O15379 whole entry, species assumed): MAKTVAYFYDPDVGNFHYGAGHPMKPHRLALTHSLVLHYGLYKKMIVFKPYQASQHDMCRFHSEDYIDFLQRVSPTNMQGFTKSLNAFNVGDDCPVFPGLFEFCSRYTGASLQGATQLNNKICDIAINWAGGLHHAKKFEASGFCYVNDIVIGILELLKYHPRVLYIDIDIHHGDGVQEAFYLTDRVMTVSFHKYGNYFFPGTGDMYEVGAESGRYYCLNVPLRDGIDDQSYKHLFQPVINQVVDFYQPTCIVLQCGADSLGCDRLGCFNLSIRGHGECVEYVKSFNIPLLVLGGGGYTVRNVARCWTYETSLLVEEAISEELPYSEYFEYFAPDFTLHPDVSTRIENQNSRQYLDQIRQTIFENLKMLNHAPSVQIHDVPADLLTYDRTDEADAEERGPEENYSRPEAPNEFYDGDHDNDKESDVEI
# Sequence (Q9Y618 395-489 partner limits assumed, species assumed): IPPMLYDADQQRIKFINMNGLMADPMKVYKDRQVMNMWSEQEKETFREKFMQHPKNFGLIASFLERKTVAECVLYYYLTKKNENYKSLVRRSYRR
# assay.summary: HDAC inhibitory activity assay with HDAC-3 (fluorophore/quencher peptide substrate)
# Type: biochemical
# measurement.parameters: enzyme/compound mix incubated at room temperature for 2 hours; reaction about 45 minutes; fluorescence read
IC50 vs 2 µM: less than gives YES; not less than gives NO.

For orientation, consider the following solved cases.
Nc1ccccc1NC(=O)c1ccc(NC(=O)C(c2ccccc2)N2CCOCC2)cc1 (centres unmarked); YES
CC(C(=O)Nc1ccc(C(=O)Nc2cc(-c3cccs3)ccc2N)cc1)N1CCOCC1 (centres unmarked); YES
CC(C(=O)Nc1ccc(C(=O)Nc2cc(-c3ccc(F)cc3)ccc2N)cc1)N1CCOCC1 (centres unmarked); NO
CC(C(=O)Nc1ccc(C(=O)Nc2cc(-c3cccs3)ccc2N)cc1F)N1CCCC1=O (centres unmarked); YES
CC(C(=O)Nc1ccc(C(=O)Nc2cc(-c3cccs3)ccc2N)cc1)N1CCCC1=O (centres unmarked); YES
CC(C)(C(=O)Nc1ccc(C(=O)Nc2cc(-c3ccc(F)cc3)ccc2N)cc1)N1CCOCC1; NO

# input Please state whether IC50 is below 2 µM for CC(C(=O)Nc1ccc(C(=O)Nc2cc(-c3ccc(Cl)s3)ccc2N)cc1)N1CCCC1=O (centres unmarked)
# output NO

# input Please state whether IC50 is below 2 µM for CC(C(=O)Nc1ccc(C(=O)Nc2cc(-c3ccc(F)cc3)ccc2N)cc1)N1CCCC1=O (centres unmarked)
# output YES

---

# subject.of.test: HDAC-1 (Homo sapiens, UniProt Q13547)
# Sequence (Q13547 whole entry, species assumed): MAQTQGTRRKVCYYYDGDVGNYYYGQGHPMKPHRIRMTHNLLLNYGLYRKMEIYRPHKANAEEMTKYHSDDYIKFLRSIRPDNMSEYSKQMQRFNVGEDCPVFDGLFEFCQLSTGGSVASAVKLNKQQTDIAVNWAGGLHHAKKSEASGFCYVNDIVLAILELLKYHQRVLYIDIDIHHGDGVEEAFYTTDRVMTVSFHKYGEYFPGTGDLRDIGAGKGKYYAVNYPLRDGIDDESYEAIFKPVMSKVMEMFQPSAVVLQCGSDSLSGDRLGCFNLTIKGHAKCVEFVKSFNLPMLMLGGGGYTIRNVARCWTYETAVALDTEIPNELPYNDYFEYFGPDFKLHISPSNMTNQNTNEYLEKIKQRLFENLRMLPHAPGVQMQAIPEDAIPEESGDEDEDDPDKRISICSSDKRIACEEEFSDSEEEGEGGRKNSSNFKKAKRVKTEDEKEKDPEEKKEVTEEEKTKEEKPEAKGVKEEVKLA
# assay.summary: HDAC inhibitory activity assay with HDAC-1 (fluorophore/quencher peptide substrate)
# Type: biochemical
# measurement.parameters: enzyme/compound mix incubated at room temperature for 2 hours; reaction about 45 minutes; fluorescence read
measurement.label: IC50 (µM)
# output: bare number, implied unit µM

Some entries whose results are on file:
CC(C(=O)Nc1ccc(C(=O)Nc2ccccc2N)cc1)N1CCCC1 (stereo not drawn) [Example 1]; 0.201
CC(C(=O)Nc1ccc(C(=O)Nc2cc(-c3cccs3)ccc2N)cc1F)N1CCCC1=O (stereo not drawn) [Example 11]; 0.0019
CC(C(=O)Nc1ccc(C(=O)Nc2cc(-c3ccc(Cl)s3)ccc2N)cc1)N1CCCC1=O (stereo not drawn) [Example 12]; 0.0071
CC(C(=O)Nc1ccc(C(=O)Nc2cc(-c3cccs3)ccc2N)cc1)N1CCCC1=O (stereo not drawn) [Example 5]; 0.0016
Nc1ccccc1NC(=O)c1ccc(NC(=O)C(c2ccccc2)N2CCOCC2)cc1 (stereo not drawn) [Example 6]; 0.0253

# input Give the measured IC50 for CC(C(=O)Nc1ccc(C(=O)Nc2cc(-c3ccc(F)cc3)ccc2N)cc1)N1CCCC1=O (stereo not drawn) [Example 7]
# output 0.0027

# input Give the measured IC50 for CC(C(=O)Nc1ccc(C(=O)Nc2cc(-c3cccs3)ccc2N)cc1)N1CCCC1 (stereo not drawn) [Example 3]
# output 0.003

# input Give the measured IC50 for CC(C(=O)Nc1ccc(C(=O)Nc2cc(-c3ccc(F)cc3)ccc2N)cc1)N1CCOCC1 (stereo not drawn) [Example 9]
# output 0.0047

# input Give the measured IC50 for CC(C(=O)Nc1ccc(C(=O)Nc2cc(-c3ccc(F)cc3)ccc2N)cc1)N1CCCC1 (stereo not drawn) [Example 2]
# output 0.003

# input Give the measured IC50 for CC(C)(C(=O)Nc1ccc(C(=O)Nc2cc(-c3ccc(F)cc3)ccc2N)cc1)N1CCOCC1 [Example 10]
# output 0.0041

# input Give the measured IC50 for CC(C(=O)Nc1ccc(C(=O)Nc2cc(-c3cccs3)ccc2N)cc1)N1CCOCC1 (stereo not drawn) [Example 8]
# output 0.0028

# input Give the measured IC50 for CC(C(=O)Nc1ccc(C(=O)Nc2ccccc2N)cc1)N1CCCC1=O (stereo not drawn) [Example 4]
# output 0.0915
